Origin of the recorded values: patent US12390437B2

- test_description: Mouse pharmacokinetic study, oral administration
- Type: in vivo
- test_settings: male, C57BL/6, po; mouse plasma, Example 112 dosed orally at 100 mg/kg (Intermediate 8 = metabolite), time 6 h; read-out: Example 112 and Intermediate 8 concentrations following oral administration
concentration at 6 h by entry:
Write the answer as a number in ng/mL, unit excluded.

C=C(CC(=O)O[C@H](C)CCCCCC)C(=O)OCC(=O)O = 4020

Read the next record carefully.
Asked: Name the recorded concentration at 6 h for C=C(CC(=O)O[C@H](C)CCCCCC)C(=O)O [Intermediate 8] .
Given back: 614

----------
- Tested on: IL-6 cytokine output from THP-1s
- test_description: THP-1 AlphaLISA IL-6 cytokine assay
- Type: cell-based, human
- test_settings: Homo sapiens; PMA-differentiated THP-1 cells, LPS 24 hr then Nigericin 1 hour
pIC50 by entry:
Friendly reminder that pIC50 comes from taking -log10 of the concentration in mol/L.

The cases that follow already have their pIC50 on record.
C=C(CC(=O)OC1CCCCC1)C(=O)OCC(C)(C)C(=O)O = 4.36
C=C(CC(=O)OCCCCCCCC)C(=O)OCCC(=O)N1CCOCC1 = 5.51
C=C(CC(=O)OC1CC2(CCC2)C1)C(=O)OCC(=O)O = 4.33
C=C(CC(=O)OCCCCCCCC)C(=O)OC1CS(=O)(=O)C1 = 5.52
C=C(CC(=O)OCCCCCCCC)C(=O)OC1COC1 = 5.44

Asked: Name the recorded pIC50 for C=C(CC(=O)OCCCCCCCC)C(=O)OCC(=O)N(C)C .
Given back: 5.62

Asked: Name the recorded pIC50 for C=C(CC(=O)OCCCCCCCC)C(=O)OCCN1CCS(=O)(=O)CC1 .
Given back: 5.60
